# Test system: MDA-MB-231 breast
# Measurement Description: NCI tumour cell line growth inhibition, 48 h
Property: GI50

Molecule: C[C@]12CC[C@@H]3c4cc(OC(F)F)c(OS(N)(=O)=O)cc4CC[C@H]3[C@@H]1CC[C@@H]2OS(N)(=O)=O
GI50: 3.05 µM

Quick one: give me GI50 for each item below, same order please.
1. C[C@@H](NC(=O)/C(C#N)=C/c1ccc([N+](=O)[O-])cc1)c1ccccc1
2. CC(=O)Nc1c(I)c(NC(C)=O)c(I)c(C(=O)O)c1I
3. COc1ccc(Sc2nc3cc(N)cc(N)c3nc2-c2ccccc2)cc1

OUT:
["2.3 µM", "> 100 µM", "> 100 µM"]

----------
# Test system: SW-620 colon
# Measurement Description: NCI tumour cell line growth inhibition, 48 h
Please respond with reported TGI for every item in the list.

Illustrative cases are given below, each with its answer.
Compound: COC(=O)C(C)(C)[C@@H]1OC(=O)N(S(=O)(=O)c2c(C)cc(C)cc2C)[C@H]1C(C)C
TGI: > 100 µM
//
Compound: Cc1ccc([N+](=O)[O-])cc1S(=O)(=O)Nc1ccc(C2=NOC(c3cccs3)C2)cc1 (stereo not given)
TGI: 48.4 µM
//
Compound: COc1cc(O)c2c(c1)O[C@@H]1OCC[C@H]21
TGI: > 100 µM
//
Compound: N#Cc1ccc(CSC2=C(c3ccc(Cl)cc3)S/C(=C3\SC(SCc4ccc(C#N)cc4)=C(c4ccc(Cl)cc4)S3)S2)cc1
TGI: > 100 µM

For the next question, use this compound.
IN: Quick check: TGI of Nc1ccc(Oc2ccc(C3(c4ccc(Oc5ccc(N)cc5)cc4)C4CC5CC(C4)CC3C5)cc2)cc1 ?
OUT: > 66.5 µM

----------
# Tested on: UACC-62 melanoma
# Measurement Description: NCI tumour cell line growth inhibition, 48 h; in the data active = GI50 below about 0.43 µM; inactive = the rest
Outcomes you can answer with include only these: true for active, false for inactive

Use these answered entries as a reference point.
Compound: O=C(/C(=C/c1ccc([N+](=O)[O-])cc1)SCc1ccc(Cl)cc1)c1ccc(F)cc1
Assigned Label: false
//
Compound: COc1ccc2c(c1)oc(=O)c1cc(OC)ccc12
Assigned Label: false
//
Compound: COc1ccc2cc(C(=O)/C=C/c3ccc(N(C)C)cc3)ccc2c1
Assigned Label: false
//
Compound: CN(C)CCCCC(C(=O)CBr)(c1ccccc1)c1ccccc1
Assigned Label: false

IN: GET /call?item= COc1cccc(/C=N/NC(=O)c2ccccc2N2CCCC2)c1O returns the recorded outcome of this test.
OUT: false

IN: One more compound: N=C(N)SCc1c2ccccc2c(CSC(=N)N)c2ccccc12
OUT: false

IN: Another compound to look at: O=C([O][Hg][CH2]C1OCCOC1[CH2][Hg][O]C(=O)c1ccccc1)c1ccccc1 (stereo unspecified)
OUT: false

IN: Similarly, CCNC(=O)Nc1ccc(Oc2ccnc3ccc4c(ccn4C)c23)cc1 ?
OUT: false

IN: Another compound to look at: CCOC(=O)c1cc(C(=O)c2cc(OC)c(OC)c(OC)c2)n2c1ccc1ccccc12
OUT: true

IN: Then this compound: O=C(Nc1ccc(-n2cc(-c3ccncc3)c(-c3ccc(O)c(Cl)c3)n2)cc1)Nc1ccc(Cl)c(C(F)(F)F)c1
OUT: false

IN: Next: CCCCCCn1c(-c2ccc(C(=O)O/N=C(\N)c3ccc4ccccc4c3)cc2)nc(-c2ccccc2)c1-c1ccccc1
OUT: false

----------
For each record, write down the corresponding TGI.
# Test system: HT29 colon
# Measurement Description: NCI tumour cell line growth inhibition, 48 h

See these solved cases before continuing.
Molecule: CCCc1cc(=O)n2c(C(=O)Nc3cccc(C(=O)OCC)c3)c(C(=O)Nc3ccc(F)cc3)sc2n1
Measurement Target: HT29 colon
Assay Result: > 140 µM
--
Molecule: Cc1ccc([N+](=O)[O-])cc1S(=O)(=O)Nc1ccc(C2=NOC(c3cccs3)C2)cc1 (stereo not drawn)
Measurement Target: HT29 colon
Assay Result: 40.2 µM
--
Molecule: C(=N\Nc1ccccc1)/c1nc2ccccc2nc1/C=N/Nc1ccccc1
Measurement Target: HT29 colon
Assay Result: 23.5 µM
--
Molecule: CC(C)CC(=O)NC(C(=O)NC(C(=O)NC(CC(C)C)C(O)CC(=O)NC(C)C(=O)NC(CC(C)C)C(O)CC(=O)O)C(C)C)C(C)C (stereo not drawn)
Measurement Target: HT29 colon
Assay Result: > 100 µM

Hi team, please reply with TGI for each item in this list.
1. Cc1nn2c(nc1=O)sc1ccc3ccccc3c12
2. CC1CC/C(=C\c2ccc(N(C)C)cc2)C2=C1C(c1ccc(N(C)C)cc1)NC(=S)N2 (stereo not drawn)
3. CC[C@@H](C(=O)[C@H](C)[C@H](O)[C@@H](C)[C@H]1O[C@H]([C@@H](CC)C(=O)N(CC)CC)CC[C@H]1C)C1O[C@]2(C=C[C@@H](O)[C@]3(CC[C@@](C)([C@H]4CC[C@](O)(CC)[C@H](C)O4)O3)O2)[C@H](C)C[C@@H]1C (stereo partly drawn)
4. COc1ccc2c(c1)oc(=O)c1cc(OC)ccc12

OUT:
["> 100 µM", "> 100 µM", "15.6 µM", "> 100 µM"]

----------
# Tested on: HL-60(TB) leukemia
# Measurement Description: NCI tumour cell line growth inhibition, 48 h
Property: TGI (µM)
Numbers only, in µM.

# annotated cases, reported TGI shown
Smiles Entry: CN(C)CCCCC(C(=O)CBr)(c1ccccc1)c1ccccc1
TGI / µM: 3.95

Smiles Entry: Cc1ccc2c(c1)c(Sc1ccc(C(=O)NO)cc1)c1n2CN(C)CC1
TGI / µM: 6.4

Smiles Entry: CCCN(CCC)C(=S)N/N=C/c1ccccn1
TGI / µM: 0.207

IN: What TGI value was documented for this compound, OC[P+](CO)(CO)C12CC3CC(CC(C3)C1)C2 ?
OUT: 35.4

----------
# Test system: HT29 colon
# Measurement Description: NCI tumour cell line growth inhibition, 48 h; in the data active = GI50 below about 0.43 µM; inactive = the rest
Pick one: Yes = active, No = inactive

Study these solved cases before continuing.
Molecule: CC/C(=C(/c1ccc(O)cc1)c1ccc(OCCN)cc1)c1ccccc1
Assigned Label: No
//
Molecule: Cn1cc(C2=C(c3c4n(c5ccccc35)CCC(CN)C4)C(=O)NC2=O)c2ccccc21 (configuration not stated)
Assigned Label: No
//
Molecule: CCCCCCCCCCCCSC1=C(Cl)C(=O)C(OC)=C(OC)C1=O
Assigned Label: No
//
Molecule: N#Cc1c(N2CCOCC2)nc(=S)[nH]c1-c1ccccc1
Assigned Label: No
//
Molecule: [Cl][Hg][c]1ccc(Cl)s1
Assigned Label: No
//
Molecule: Cc1cc(Nc2ncc3c(n2)N(C)C(=O)N(c2cc(NC(=O)c4cccc(C(F)(F)F)c4)ccc2C)C3)n(C)n1
Assigned Label: Yes
//
Molecule: N=C(N)SCc1c2ccccc2c(CSC(=N)N)c2ccccc12
Assigned Label: No
//
Molecule: Clc1ccc(Nc2ccnc(N3CCN(c4ccnc5cc(Cl)ccc45)CC3)n2)cc1
Assigned Label: No

IN: For CC(=O)Nc1c(I)c(NC(C)=O)c(I)c(C(=O)O)c1I , which call appears in the assay record?
OUT: No

IN: What do we get for COc1ccc2c(c1)[nH]c(=O)c1c3ccccc3cn21 ?
OUT: Yes

----------
# Test system: KM12 colon
# Measurement Description: NCI tumour cell line growth inhibition, 48 h
Where a SMILES comes first, the peptide text is derived from it. Bridges are numbered along the chain shown (N, C = ends). [ ]: non-standard residue; d: D form. The star is where a group is joined. ξ: configuration not given here. ξDab(CH2SO3H) = NC(CCNCS(=O)(=O)O)C(=O)O; Heptanoyl(6-Me) = CC(C)CCCCC(=O)*; Dab = NCC[CH](N)C(=O)O
So I've got a bunch of compounds here, and I need their TGI values.
Numbers only, in µM.

Some solved cases for reference:
Compound: COc1ccc2nc3c([N+](=O)[O-])ccc(NCCCN(C)C)c3c(NCCCN(C)C)c2c1
TGI (µM): 2.54
//
Compound: COc1cc(C(=O)N2CCN(c3ccccc3)CC2)c2ccccc2n1
TGI (µM): 5.19
//
Compound: COc1ccc2c(c1)CC[C@@H]1[C@@H]2CC[C@]2(C)c3c(cc(C(=O)O)c4sccc34)C[C@@H]12
TGI (µM): 23.5
//
Compound: Cc1ccc(NC(=O)c2cc3ccccc3c(N=Nc3cc(S(=O)(=O)O)ccc3O)c2O)c(C)c1
TGI (µM): 53.9

IN: May I ask what TGI has been recorded for CCC(C)C1NC(=O)C(CCNCS(=O)(=O)O)NC(=O)C(NC(=O)C(CCNCS(=O)(=O)O)NC(=O)C(NC(=O)C(CCNCS(=O)(=O)O)NC(=O)CCCCC(C)C)C(C)O)CCNC(=O)C(C(C)O)NC(=O)C(CCNCS(=O)(=O)O)NC(=O)C(CCNCS(=O)(=O)O)NC(=O)C(C(C)CC)NC1=O (centres undefined) ({Heptanoyl(6-Me)}-[ξDab(CH2SO3H)]T[ξDab(CH2SO3H)][Dab][ξDab(CH2SO3H)]II[ξDab(CH2SO3H)][ξDab(CH2SO3H)]T; lactam 4-C; configuration not given here) ?
OUT: 9.55

Values were extracted from PubChem BioAssay (NCI).
